Catalogue of compounds with associated activity coefficient
Experiment: activity coefficient (dimensionless); of the first substance listed, at infinite dilution; xn = mol fraction of the nth substance listed
Conditions: 323.15 K; 101 kPa; Liquid; Chromatography; x1 = 0

Compound | activity coefficient
ClCCl [dichloromethane] + CCCC[N+]1(C)CCCC1.O=S(=O)([N-]S(=O)(=O)C(F)(F)F)C(F)(F)F | 0.66
CCCCCC [hexane] + CCCC[N+]1(C)CCCC1.O=S(=O)([N-]S(=O)(=O)C(F)(F)F)C(F)(F)F | 13.9
Cc1cccc(C)c1 [1,3-dimethylbenzene] + CCC[N+]1(C)CCCC1.O=S(=O)([N-]S(=O)(=O)C(F)(F)F)C(F)(F)F | 1.97
CCC(=O)CC [pentan-3-one] + CCCC[N+]1(C)CCCC1.O=S(=O)([N-]S(=O)(=O)C(F)(F)F)C(F)(F)F | 0.73
CCCCCCC [heptane] + CCC[N+]1(C)CCCC1.O=S(=O)([N-]S(=O)(=O)C(F)(F)F)C(F)(F)F | 24
C1CCCCCC1 [cycloheptane] + CCC[N+]1(C)CCCC1.O=S(=O)([N-]S(=O)(=O)C(F)(F)F)C(F)(F)F | 29.1

Cited source: the NIST ThermoML archive (doi:10.1021/je4001894)
